# test: H69AR cell proliferation blockers – human, duplicate replicates, primary screen (AID 580);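 note: 100% = mean luminescence of untreated wells and 0% = no signal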
# assayConditions: H69AR lung tumor cells viability, ATP luminescence, 72 h; at 10 µM; stronger effect = lower value
Activity calls are given as the source filed them.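 Rule for the calls: active = viability at or under a set limit in both replicates, limit being median viability minus 3 SD (cut at about 48% in these data, passing the limit was not always enough); inconclusive = at or under the limit in just one replicate; inactive = at or above the limit in both replicates.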
measurementKind: viability

# givenSmiles, viability
rows = [
    ("CCN(CC)C(=O)c1ccc(CS(=O)(=O)c2ccc(OC)cc2)o1", "87.8% (inactive)"),
    ("CCOC(=O)c1ccc2ncc(C(=O)OCC)c(NCCN(C)C)c2c1", "91.8% (inactive)"),
]

Could you now consider this next compound?
Give the measured viability of CCOC(=O)N1CCC(c2cc(=O)n3[nH]cc(C(=O)OC)c3n2)CC1 .
92.2% (inactive)

====

# test: Her2 expression decrease, cell viability multiplex – SKBR3 breast tumor cells, AlphaScreen, ATP viability, primary screen (AID 461);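 note: percent of carrier control wells set as 100% viability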
# assayConditions: SKBR3 Her2 protein level, 18-24 h, measured here: SKBR3 viability, ATP luminescence, at 10 µM
Assignment: determine reported viability for the given molecules.
One number for each entry, in %.

Solved entries:
# molecule, viability / %
data = [
    ("O=C(NCc1ccc2c(c1)OCO2)C1CCC(CNc2c(N3CCCCC3)c(=O)c2=O)CC1 (stereo not drawn)", 92.5),
    ("CC(C)C(=O)Nc1ccc(-c2nc3cccnc3o2)cc1", 93.5),
    ("CC(C)(C)NC(=O)CSc1nnc(-c2ccccn2)n1-c1ccccc1", 98.5),
    ("CCn1cc(SCC(=O)NCC2CCCO2)c2ccccc21 (stereo not drawn)", 88),
    ("CCn1c2ccccc2c2cc(Nc3cc(C)nc4ncnn34)ccc21", 93),
    ("Cc1cc(C)n(-c2cc(N3CCOCC3)ncn2)n1", 101),
    ("CCOC(=O)CN(C(=O)c1ccccc1)c1ccccc1C", 93),
]

Consider now this further molecule.
Record request: viability value, item COC(=O)C(C#N)C(=C1C(=O)CC(C)(C)CC1=O)c1ccc(O)cc1 (stereo not drawn)
90

====

# test: viability of PTEN-null HCT116 cells – cell-based, HCT116 clonal line, CellTiter-Glo, pilot screen (AID 824);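 note: 0% = 20 µM Hyamine control and 100% = vehicle cell control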
# assayConditions: HCT116 PTEN-deleted viability, 60 h, at 10 µM, stronger effect = lower value
Inconclusive results are not listed. Activity calls are given as the source filed them.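 The calls were made as follows: active = viability at or below 27.92% in each of two runs, the all-compound median minus 4 SD; inconclusive = no clear call, values can overlap the other calls; inactive = the rest.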
Would you kindly list viability for each of these compounds?

# compound, viability
records = [
    ("CCOC(=O)N1CCN(C(=O)c2c(-c3ccccc3)noc2C)CC1", "87.6% (inactive)"),
    ("O=C(O)c1ccc(Cl)c2c1C1C=CCC1C(c1ccccn1)N2 (stereo not given)", "94.6% (inactive)"),
    ("C#CCSc1nnc(-c2c[nH]c3ccccc23)n1C", "93.5% (inactive)"),
    ("O=C(CCn1c(=S)[nH]c2ccccc2c1=O)N1CCOCC1", "103% (inactive)"),
    ("COc1ccc(CNC(=O)c2ccc3c(c2)N(C)C(=O)CS3=O)cc1 (stereo not given)", "97.3% (inactive)"),
]

For each listed entry, give its viability.
1. CC1Cc2nc(SCC(=O)Nc3ccc4c(c3)OCO4)n(CCc3ccccc3)c(=O)c2S1 (stereo not given)
2. O=C(O)C1CCC(=O)N1C1c2ccccc2Oc2ccccc21 (stereo not given)
3. Oc1c(C(c2cccs2)N2CCN(c3ccc(F)cc3)CC2)sc2ncnn12 (stereo not given)
4. CC(C)CCNC(=O)Cn1c(=O)oc2cc(S(=O)(=O)N3CCc4ccccc43)ccc21
5. CC1CCCN(S(=O)(=O)c2coc(C(N)=O)c2)C1 (stereo not given)

1: 87.1% (inactive); 2: 98.9% (inactive); 3: 90.9% (inactive); 4: 62.5% (inactive); 5: 99.5% (inactive)
